Test system: human peripheral blood mononuclear cells (PBMCs)
TEST_SUMMARY: Human PBMC activation assay, cytokine levels (IL-10, IL-6, MCP-1, TNF-α) in supernatant after 24 hours (Example 9)
CONDITION_DETAILS: human PBMC supernatant after 24 hours; 200 μM oligonucleotide
Here, each record is paired with measured Levels of MCP-1 data.
The reply should contain only the number, in pg/mL.

Study these solved cases before continuing.
- SUBSTANCE: "830121 (AGAATCAAGCCCTGGC; 3-10-3 cEt gapmer, further chemistry not given here) [compound 830121]"
  Levels of MCP-1, pg/mL: 411.0
- SUBSTANCE: "830025 (antisense TTTGTAAATCGAAAGC; 3-10-3 cEt gapmer, further chemistry not given here) [compound 830025]"
  Levels of MCP-1, pg/mL: 52.7

Requested field: Levels of MCP-1. Item: 790615 (CCAATGAGAATGCTTC; 3-10-3 cEt gapmer, further chemistry not given here) [compound 790615]
81.6

Which Levels of MCP-1 is reported for this substance? 798781 (CGTAAGATTCACAGCA; 3-10-3 cEt gapmer, further chemistry not given here) [compound 798781]
61.3

I am curious: what Levels of MCP-1 value has been reported for 829994 (GGAGGCAGGGCCGCGA; 3-10-3 cEt gapmer, further chemistry not given here) [compound 829994] ?
391.7

If you can, please state the reported Levels of MCP-1 value of 830037 (antisense CTATTGGCTGATCTGG; 3-10-3 cEt gapmer, further chemistry not given here) [compound 830037] .
2449.3

# lookup: Levels of MCP-1 of 736697 (antisense GTCGCCCCTTCTCCCCGCAGC; chemistry not fully specified) [compound 736697]
622.8

---

The reader will find reported % Inhibition values listed item by item below.
Test system: human SMAD7 mRNA
TEST_SUMMARY: Antisense inhibition of human SMAD7 mRNA expression in Hep3B cells by 3-10-3 cEt gapmers, 10,000 nM, electroporation (Example 2)
Assay type: cell-based
CONDITION_DETAILS: Hep3B cells, electroporation with 10,000 nM antisense oligonucleotide, approximately 24 hours, RTS5062, percent inhibition of SMAD7 mRNA relative to untreated control cells
Strand notation (5' to 3'): a small letter for the sugar, then the base; units joined by * are phosphorothioate-linked, units joined directly phosphodiester-linked; [ ] holds rarer units or linkages, { } end groups; capitals alone tell only the bases. k = constrained ethyl (cEt); [5mC] = 5-methylcytosine; d = 2'-deoxy (DNA)
Please state the figure in %; there is no need to write the unit.

- SUBSTANCE: "799683 (antisense k[5mC]*kT*kG*d[5mC]*dA*dG*dA*dA*dG*dA*dG*dG*d[5mC]*kG*kG*kG) [compound 799683]"
  % Inhibition [%]: 32
- SUBSTANCE: "799552 (kA*kG*kG*dG*dA*dA*d[5mC]*dA*dA*dT*dT*dA*d[5mC]*kA*kG*k[5mC]; antisense) [compound 799552]"
  % Inhibition [%]: 58

Given the substance 790715 (kT*kG*kT*d[5mC]*dA*d[5mC]*d[5mC]*d[5mC]*dG*dT*d[5mC]*dT*dG*kG*kG*k[5mC]; antisense) [compound 790715] , what is its reported % Inhibition?
16
